- STUDY_TARGET: Beta Secretase enzyme (BACE1) (Homo sapiens)
- Sequence (P56817 46-501): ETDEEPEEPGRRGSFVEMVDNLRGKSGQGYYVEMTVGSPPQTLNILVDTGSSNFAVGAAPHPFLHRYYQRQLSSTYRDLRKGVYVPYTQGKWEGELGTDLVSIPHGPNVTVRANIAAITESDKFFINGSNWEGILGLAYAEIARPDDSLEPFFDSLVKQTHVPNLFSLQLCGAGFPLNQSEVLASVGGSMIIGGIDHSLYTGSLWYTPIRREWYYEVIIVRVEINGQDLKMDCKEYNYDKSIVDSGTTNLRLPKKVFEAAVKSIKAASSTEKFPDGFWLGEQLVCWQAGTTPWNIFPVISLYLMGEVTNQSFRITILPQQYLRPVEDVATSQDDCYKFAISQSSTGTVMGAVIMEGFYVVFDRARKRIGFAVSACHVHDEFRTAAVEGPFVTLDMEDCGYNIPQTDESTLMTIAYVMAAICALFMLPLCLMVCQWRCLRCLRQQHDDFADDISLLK
- EXPERIMENTAL_PROTOCOL: In vitro enzymatic BACE FRET assay
- Type: biochemical
- MEASUREMENT_CONDITIONS: average IC50; read-out: BACE1 FRET assay IC50
MEASURED_QUANTITY: pIC50
Hey, just a heads up that pIC50 is the negative log base 10 of the concentration in molar.

Please review the following examples before continuing.
1) COc1cnc2c(Nc3ccc(F)c([C@@]4(C)N=C(N)C5(CC5)S(=O)(=O)[C@@H]4F)c3)nccc2n1 : 8.07
2) C[C@]1(F)C(N)=N[C@](C)(c2cc(Nc3ncc(F)c4cc(C#N)cnc34)ccc2F)CS1(=O)=O : 9.10
3) Cc1cc(Cl)cnc1C(=O)Nc1ccc(F)c([C@]2(CF)CS(=O)(=O)C3(CC3)C(N)=N2)c1 : 9.27
4) Cc1cc(C(F)F)cnc1C(=O)Nc1ccc(F)c([C@@]2(C)N=C(N)C3(CC3)S(=O)(=O)[C@H]2F)c1 : 9.04
5) Cc1cc(OC(F)F)cnc1C(=O)Nc1ccc(F)c([C@]2(CF)CS(=O)(=O)C3(CC3)C(N)=N2)c1 : 8.92

Ask: Entry CC1(C)C(N)=N[C@](CF)(c2cc(N)ccc2F)CS1(=O)=O : reported pIC50 = ?
Reply: 5.60

Ask: Entry CC1(C)C(N)=N[C@](CF)(c2cc(NC(=O)c3ccc(Cl)cn3)ccc2F)CS1(=O)=O : reported pIC50 = ?
Reply: 9.12
